These entries and their values trace back to ChEMBL document CHEMBL1212818.

Carbonic anhydrase 7 (Homo sapiens, UniProt P43166) data, read-out Ki
Sequence (P43166 whole entry): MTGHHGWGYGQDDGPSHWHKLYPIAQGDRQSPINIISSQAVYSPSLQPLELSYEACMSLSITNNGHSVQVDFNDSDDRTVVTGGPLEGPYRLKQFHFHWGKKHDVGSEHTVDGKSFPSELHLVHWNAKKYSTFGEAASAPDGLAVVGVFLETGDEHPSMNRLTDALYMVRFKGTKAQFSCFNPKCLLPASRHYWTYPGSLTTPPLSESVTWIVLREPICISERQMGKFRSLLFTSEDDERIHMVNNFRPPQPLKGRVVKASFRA
assayMetric: Ki (nM)

Consider the following illustrative entries.
compound	Ki, nM
NCCCCNCCCN [SPERMIDINE]	1230
CC(C)(C)OC(=O)N(CCCN)CCCCN(CCCN)C(=O)OC(C)(C)C	108000
NCCCCCN	420

P: NCCNc1cccc2ccccc12
Q: O=C(NCCCNCCCCNCCCNC(=O)C(F)(F)F)C(F)(F)F
Query string: Compare P and Q and name the one whose reported Ki is smaller. Write down the label attached to your selection.
Result string: P

----------
target: Carbonic anhydrase 12 (Homo sapiens, UniProt O43570)
Sequence (O43570 whole entry): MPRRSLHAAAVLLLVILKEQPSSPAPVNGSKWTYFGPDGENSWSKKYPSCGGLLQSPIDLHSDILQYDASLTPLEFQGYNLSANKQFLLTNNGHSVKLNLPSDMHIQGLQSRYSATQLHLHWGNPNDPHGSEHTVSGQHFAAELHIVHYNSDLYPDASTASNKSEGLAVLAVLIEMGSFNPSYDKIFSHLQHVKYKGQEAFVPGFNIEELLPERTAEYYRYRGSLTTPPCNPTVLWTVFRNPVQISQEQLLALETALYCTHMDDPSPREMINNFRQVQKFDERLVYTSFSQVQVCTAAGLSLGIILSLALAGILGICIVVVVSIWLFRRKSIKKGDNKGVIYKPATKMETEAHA
pKi: −log10 of the molar value.
assayMetric: pKi

Consider the following illustrative entries.
1. CN(C)CCN(C)CCN(C)CCN(C)C 6.28
2. CC(=O)NCCNc1cccc2ccccc12 4.67

I: O=C(NCCCNCCCCNCCCNC(=O)C(F)(F)F)C(F)(F)F
II: CC(C)(C)OC(=O)N(CCCN)CCCCN(CCCN)C(=O)OC(C)(C)C
III: NCCCCCCN
IV: NCCCCNCCCN
Query string: Please rank these compounds by pKi in descending order. # the answer lists labels in the order requested
Result string: III, I, IV, II
(III: 6.43, I: 4.99, IV: 4.36, II: 3.78)

----------
Carbonic anhydrase 14 (Homo sapiens, UniProt Q9ULX7) data, read-out pKi
Sequence (Q9ULX7 whole entry): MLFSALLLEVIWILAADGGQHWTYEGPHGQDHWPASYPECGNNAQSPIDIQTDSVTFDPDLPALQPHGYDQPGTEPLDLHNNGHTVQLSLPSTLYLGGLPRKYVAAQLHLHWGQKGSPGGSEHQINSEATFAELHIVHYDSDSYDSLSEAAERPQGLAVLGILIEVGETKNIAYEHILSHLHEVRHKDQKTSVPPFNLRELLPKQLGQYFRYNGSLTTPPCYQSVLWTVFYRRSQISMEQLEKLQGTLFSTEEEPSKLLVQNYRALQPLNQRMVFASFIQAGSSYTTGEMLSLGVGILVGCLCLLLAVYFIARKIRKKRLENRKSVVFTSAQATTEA
pKi: −log10 of the molar value.
assayMetric: pKi

Consider the following illustrative entries.
compound	pKi
O=C(NCCCNCCCCNCCCNC(=O)C(F)(F)F)C(F)(F)F	5.17
CC(C)(C)OC(=O)N(CCCN)CCCCN(CCCN)C(=O)OC(C)(C)C	3.94
NCCNCCCNCCN	4.44
CC(=O)NCCNc1cccc2ccccc12	4.47
CC(C)(C)OC(=O)N(CCCCN(CCCNC(=O)C(F)(F)F)C(=O)OC(C)(C)C)CCCNC(=O)C(F)(F)F	4.07
NCCNCCN	5.00
CN(C)CCN(C)CCN(C)CCN(C)C	6.13

P: NCCCCCN
Q: NCCCNCCCCNCCCN [SPERMINE]
Query string: Compare P and Q and name the one whose reported pKi is smaller. Write down the label attached to your selection.
Result string: Q
(Q: 6.07, P: 6.30)

----------
biological target: UniProtKB P35218
Sequence (P35218 whole entry): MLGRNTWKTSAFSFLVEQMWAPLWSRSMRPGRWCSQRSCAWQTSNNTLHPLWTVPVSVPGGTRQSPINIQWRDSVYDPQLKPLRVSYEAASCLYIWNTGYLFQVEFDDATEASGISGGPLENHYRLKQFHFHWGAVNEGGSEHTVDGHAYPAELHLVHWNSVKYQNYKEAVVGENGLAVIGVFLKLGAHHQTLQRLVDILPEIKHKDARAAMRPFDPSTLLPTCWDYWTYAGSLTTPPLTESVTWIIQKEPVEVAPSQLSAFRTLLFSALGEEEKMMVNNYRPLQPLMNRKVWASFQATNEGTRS
pKi: −log10 of the molar value.
assayMetric: pKi

1) NCCCNCCCCNCCCN 6.08
2) CC(C)(C)OC(=O)N(CCCN)CCCCN(CCCN)C(=O)OC(C)(C)C 3.88
3) CC(C)(C)OC(=O)N(CCCN(CCNC(=O)C(F)(F)F)C(=O)OC(C)(C)C)CCNC(=O)C(F)(F)F 3.38

I: NCCNCCCNCCN
II: NCCCCNCCCN
III: NCCNc1cccc2ccccc12
Query string: Please rank these molecules by pKi in descending order. # the answer lists labels in the order requested
Result string: III, II, I
(III: 7.32, II: 5.91, I: 4.30)

A: O=C(NCCCNCCCCNCCCNC(=O)C(F)(F)F)C(F)(F)F
B: O=C(NCCNCCCNCCNC(=O)C(F)(F)F)C(F)(F)F
Query string: Sort A and B by pKi descending and give the first. Write down the label attached to your selection.
Result string: A
(A: 5.90, B: 4.21)
